Molecular target: human α7 nAChR (Homo sapiens)
Construct: host or cells: GH4C1 cells (pituitary tumor, immortalized cell line)
Sequence (P36544 23-502): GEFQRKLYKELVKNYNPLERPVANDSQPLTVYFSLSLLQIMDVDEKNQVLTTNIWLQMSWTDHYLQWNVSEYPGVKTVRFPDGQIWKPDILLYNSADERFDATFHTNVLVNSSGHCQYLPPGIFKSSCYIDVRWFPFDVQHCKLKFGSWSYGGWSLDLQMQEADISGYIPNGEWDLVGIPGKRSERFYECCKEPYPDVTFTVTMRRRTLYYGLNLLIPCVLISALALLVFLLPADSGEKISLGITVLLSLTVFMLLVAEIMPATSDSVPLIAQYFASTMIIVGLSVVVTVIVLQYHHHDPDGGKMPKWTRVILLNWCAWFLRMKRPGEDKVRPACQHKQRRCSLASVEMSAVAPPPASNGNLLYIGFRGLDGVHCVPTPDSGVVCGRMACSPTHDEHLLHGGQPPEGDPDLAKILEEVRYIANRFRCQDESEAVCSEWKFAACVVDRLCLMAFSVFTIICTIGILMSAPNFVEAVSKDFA
Assay: α7 nAChR FLIPR (Fluorometric Imaging Plate Reader) Ca2+ assay, agonist EC50
Format: cell-based
Conditions: GH4C1 cells stably transfected with human α7 nAChR; Fluo-4 Ca2+ fluorescence; Examples 194 to 205 tested as the HCl salt; read-out: pEC50 value (negative logarithm of the agonist EC50) (converted)
Reported EC50 is given for each of the following compounds.

>>> df
                                   compound                  targetofassay   measured
0  O=C(Nc1ccc(-c2nnc(NCCCN3CCOCC3)o2)c(C(F)(F)F)c1)c1ccccc1F [Example 86]  human α7 nAChR (Homo sapiens)  ≤ 1000 nM
1  O=C(Nc1ccc(-c2nnc(NCCCN3CCCCC3)o2)cc1)c1cccc(Cl)c1 [Example 12]  human α7 nAChR (Homo sapiens)  ≤ 1000 nM
2  CCCC(=O)Nc1ccc(-c2nnc(NCCCN3CCOCC3)o2)c(OC)c1 [Example 199]  human α7 nAChR (Homo sapiens)  ≤ 1000 nM
3  CCN(CC)CCCCNc1nnc(-c2ccc(NC(=O)c3ccccc3)cc2C(F)(F)F)o1 [Example 96]  human α7 nAChR (Homo sapiens)   ≤ 100 nM
4  O=C(Nc1ccc(-c2nnc(NCCCN3CCOCC3)o2)c(C(F)(F)F)c1)c1ccccc1 [Example 93]  human α7 nAChR (Homo sapiens)  ≤ 1000 nM
5  CCN(CC)CCCCNc1nnc(-c2ccc(NC(=O)c3ccccc3)cc2)o1 [Example 119]  human α7 nAChR (Homo sapiens)   ≤ 100 nM

*Q* Which EC50 is reported with human α7 nAChR (Homo sapiens) for this entry: COc1cc(NC(=O)c2ccccc2)ccc1-c1nnc(NCCCN2CCN3CCC2CC3)o1 [Example 122] ?
*A* ≤ 100 nM

*Q* What about COc1cc(NC(=O)c2cccc(F)c2)ccc1-c1nnc(NCCCN2CCOCC2)o1 [Example 204] ?
*A* ≤ 1000 nM

----------
Biological target: human α7 nAChR (Homo sapiens)
Construct: host or cells: GH4C1 cells (pituitary tumor, immortalized cell line)
Assay: α7 nAChR FLIPR (Fluorometric Imaging Plate Reader) Ca2+ assay, agonist EC50
Type: cell-based
Conditions: GH4C1 cells stably transfected with human α7 nAChR; Fluo-4 Ca2+ fluorescence; Examples 194 to 205 tested as the HCl salt; read-out: pEC50 value (negative logarithm of the agonist EC50) (converted)
The following compounds are shown together with reported EC50 values.

*Q* What value of EC50 has been recorded for this entry: COc1cc(NC(=O)c2ccccc2)ccc1-c1nnc(NCCCN2CCCC2)o1
*A* ≤ 1 µM

*Q* Check CCN(CC)CCCNc1nnc(-c2ccc(NC(=O)c3ccccc3F)cc2Cl)o1 too.
*A* ≤ 1 µM

*Q* Please do the same for O=C(Nc1ccc(-c2nnc(NCCCN3CCCC3)o2)c(C(F)(F)F)c1)C1CCCCC1 as well.
*A* ≤ 1 µM

*Q* O=C(Nc1ccc(-c2nnc(NCCCN3CCN4CCC3CC4)o2)c(F)c1)c1ccccc1 ?
*A* ≤ 0.1 µM

*Q* Same read-out for O=C(Nc1ccc(-c2nnc(NCCCN3CCOCC3)o2)cc1)c1ccccc1 ?
*A* ≤ 1 µM

*Q* What do you have for O=C(Nc1ccc(-c2nnc(NCCCCN3CCCC3)o2)cc1)c1ccccc1 ?
*A* ≤ 0.1 µM

*Q* Check O=C(Nc1ccc(-c2nnc(NCCCN3CCCC3)o2)c(F)c1)C1CCCCC1 too.
*A* ≤ 1 µM

*Q* Okay, and CC1(C)CCN(CCCNc2nnc(-c3ccc(NC(=O)c4ccccc4F)cc3)o2)CC1 ?
*A* ≤ 1 µM

*Q* Similarly, O=C(Nc1ccc(-c2nnc(NCCCCN3CCCCC3)o2)c(C(F)(F)F)c1)c1ccccc1 ?
*A* ≤ 0.1 µM

*Q* Input CCN(CC)CCCCNc1nnc(-c2ccc(NC(=O)c3ccccc3F)cc2OC)o1
*A* ≤ 0.1 µM

*Q* How about O=C(Nc1ccc(-c2nnc(NCCCN3CCCCC3)o2)c(F)c1)C1CCCCC1 ?
*A* ≤ 1 µM

Data origin: patent US20090105217A1
